- assayOverview: Selectivity ratio of Ki for human recombinant HGPRT to Ki for Plasmodium falciparum recombinant HGXPRT at pH 7.4
Ratio Ki below 10 gives 0; Ratio Ki at or above it gives 1.

[
  {
    "compound": "C[C@H](CN1c2nc(N)[nH]c(=O)c2NC1Br)OCP(=O)(O)O (stereo partly drawn)",
    "qualitativeLabel": 0
  },
  {
    "compound": "Nc1nc2c(c(=O)[nH]1)NC(O)N2CCOCP(=O)(O)O (stereo not drawn)",
    "qualitativeLabel": 1
  },
  {
    "compound": "Nc1nc2c(c(=O)[nH]1)NCN2C[C@H]1COP(=O)(O)CO1",
    "qualitativeLabel": 1
  },
  {
    "compound": "Nc1nc2c(c(=O)[nH]1)NNN2CCOCP(=O)(O)O",
    "qualitativeLabel": 1
  },
  {
    "compound": "C[C@@H](CN1c2nc(N)[nH]c(=O)c2NC1Br)OCP(=O)(O)O (stereo partly drawn)",
    "qualitativeLabel": 1
  },
  {
    "compound": "Nc1nc2c(c(=O)[nH]1)NCN2CCOCP(=O)(O)O",
    "qualitativeLabel": 1
  },
  {
    "compound": "O=c1[nH]cnc2c1NCN2CCOCCP(=O)(O)O",
    "qualitativeLabel": 1
  },
  {
    "compound": "Nc1nc2c(c(=O)[nH]1)NCN2C[C@@H]1COP(=O)(O)CO1",
    "qualitativeLabel": 1
  },
  {
    "compound": "O=c1[nH]cnc2c1NCN2[C@@H]1O[C@H](COP(=O)(O)O)[C@@H](O)[C@H]1O",
    "qualitativeLabel": 0
  },
  {
    "compound": "O=c1[nH]cnc2c1CNN2CCOCP(=O)(O)O",
    "qualitativeLabel": 0
  },
  {
    "compound": "Nc1nc2c(c(=O)[nH]1)NC(Br)N2CCOCP(=O)(O)O (stereo not drawn)",
    "qualitativeLabel": 1
  }
]
